human CB2 receptors (Homo sapiens (Human)) Ki data
Sequence (P34972 whole entry): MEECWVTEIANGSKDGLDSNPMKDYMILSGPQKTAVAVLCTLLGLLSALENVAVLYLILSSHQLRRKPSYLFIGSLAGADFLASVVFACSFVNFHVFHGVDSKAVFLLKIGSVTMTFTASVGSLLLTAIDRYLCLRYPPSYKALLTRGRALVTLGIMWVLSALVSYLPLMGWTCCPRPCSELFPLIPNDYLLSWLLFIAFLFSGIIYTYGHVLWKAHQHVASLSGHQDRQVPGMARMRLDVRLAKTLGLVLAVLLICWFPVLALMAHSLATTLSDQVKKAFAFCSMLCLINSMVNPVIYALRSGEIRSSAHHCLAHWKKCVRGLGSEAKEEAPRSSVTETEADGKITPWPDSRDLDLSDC
Use nM as the unit, but write only the number.

>  <compound>
CC(C)Cn1cc(C(C)(C)C)s/c1=N\C(=O)c1cc(C#N)ccc1OC1CCC1

>  <Ki, nM>
96

$$$$
>  <compound>
CCCCn1/c(=N/C(=O)c2cc(C(F)(F)F)ccc2OCC(C)(C)O)sc2ncccc21

>  <Ki, nM>
15

$$$$
>  <compound>
CCCCn1cc(C(C)(C)C)s/c1=N\C(=O)c1cc(C(F)(F)F)ccc1OC[C@@H]1CCCN1C

>  <Ki, nM>
9.2

$$$$
>  <compound>
CC(C)Cn1cc(C(C)(C)C)s/c1=N\C(=O)c1ccccc1OC[C@@H]1CCCN1C

>  <Ki, nM>
296

$$$$

# return Ki for CCCCn1cc(C(C)(C)C)s/c1=N\C(=O)c1cc(C(F)(F)F)ccc1NNC(=O)c1ccncc1 , test system: human CB2 receptors (Homo sapiens (Human))
1.1

Find Ki for CC(C)Cn1cc(C(C)(C)C)s/c1=N\C(=O)c1cc(Cl)ccc1OCC1CCO1 (stereo not shown) on human CB2 receptors (Homo sapiens (Human)) and write it down.
9

Recall the reported Ki of CCCCn1/c(=N/C(=O)c2cc(C(F)(F)F)ccc2OC[C@H](C)O)sc2ccncc21 on human CB2 receptors (Homo sapiens (Human)) and write it down.
2
